Quick reference: pIC50 of the listed items.
Tested on: CHO
Assay: Inhibitory concentration against 1 nM NPY induced [Ca2+] increase in CHO/dhFr- cells expressing recombinant human Y1 receptor
Assay type: functional, cell-based
Conditions: Cricetulus griseus
pIC50 here: minus log base 10 of the concentration, concentration in moles per litre.

Q) // map CCc1sc(CCc2cc(OC(CC)CC)cc(NCc3cc(Cl)cc(NC(=O)OC(C)C)c3)n2)nc1C to recorded pIC50 (system: CHO)
A) 7.48

Q) What about CCc1sc(CCc2cc(OC3CCOCC3)cc(NCc3cc(Cl)cc(NC(=O)OC(C)C)c3)n2)nc1C ?
A) 7.38

Q) What about CCc1sc(CCc2cc(OC(C)COC)cc(NCc3cc(Cl)cc(NC(=O)OC(C)C)c3)n2)nc1C (stereo unspecified) ?
A) 7.23

Q) What about CCc1sc(CCc2cc(OCCCc3cccnc3)cc(NCc3cc(Cl)cc(NC(=O)OC(C)C)c3)n2)nc1C ?
A) 7.34

Q) What about CC/C=C\CCOc1cc(CCc2nc(C)c(CC)s2)nc(NCc2cc(Cl)cc(NC(=O)OC(C)C)c2)c1 ?
A) 7.19

Q) What about CCc1sc(CCc2cc(N3CCOCC3)cc(NCc3cc(Cl)cc(NC(=O)OC(C)C)c3)n2)nc1C ?
A) 8.54
